Test system: smallflower umbrella sedge (Cyperus difformis)
Protocol Text: Test E flooded paddy water application
Type: in vivo
Experimental Context: 32 g ai/ha; Flood; 21 days; scale 0 to 100 (0 no effect, 100 complete control)
Endpoint Name: Sedge, Umbrella plant response rating

> print(dat)
                                smiles.text  result
1        Nc1nc(-c2ccc(Cl)cc2)nc(C(=O)O)c1Br      40
2        COC(=O)c1nc(-c2ccc(I)cc2)nc(N)c1Br      60
3    CCOC(=O)c1nc(-c2ccc(Cl)cc2Cl)nc(N)c1Cl      30
4    CCOC(=O)c1nc(-c2ccc(Cl)cc2Cl)nc(N)c1Br       0
5    CCOC(=O)c1nc(-c2ccc(C)c(C)c2)nc(N)c1Br       0
6        Nc1nc(-c2ccc(Br)cc2)nc(C(=O)O)c1Cl      95
7  CCOC(=O)c1nc(-c2ccc(Cl)c(Cl)c2)nc(N)c1Cl       0

----------
System: yellow nutsedge (Cyperus esculentus)
Protocol Text: Test C pre/postemergence
Type: in vivo
Experimental Context: Cyperus, pre-emergence; Preemergence, 125 g ai/ha; scale 0 to 100; read-out: Plant response rating, Nutsedge, Yellow
The entries below come with measured pest or weed control at 125 g/ha values attached.
Endpoint Name: pest or weed control at 125 g/ha (%)

> print(dat)
                                   compound                     endpoint.name  readout.number
1  CCOC(=O)c1nc(C2CC2)nc(N)c1Br [Compound 1]  pest or weed control at 125 g/ha               0
2     Nc1nc(C2CC2)nc(C=O)c1Br [Compound 26]  pest or weed control at 125 g/ha               0
3  COC(=O)c1nc(C2CC2)nc(N)c1Br [Compound 2]  pest or weed control at 125 g/ha               0
4  COC(=O)c1nc(C(C)C)nc(N)c1Br [Compound 3]  pest or weed control at 125 g/ha               0
5  COC(=O)c1nc(C2CC2)nc(N)c1Cl [Compound 9]  pest or weed control at 125 g/ha             100

----------
Tested on: redroot pigweed (Amaranthus retroflexus)
Protocol Text: Test A pre/postemergence
Format: in vivo
Experimental Context: Preemergence, 500 g ai/ha; 0 to 100 scale where 0 is no effect and 100 is complete control; approximately ten days
Endpoint Name: Plant response rating, Pigweed

> print(dat)
                                smiles.text                   endpoint.name  readout.number
1     CCCOC(=O)c1nc(-c2ccc(Cl)cc2)nc(N)c1Cl  Plant response rating, Pigweed               0
2     CCOC(=O)Cc1nc(-c2ccc(Cl)cc2)nc(N)c1Cl  Plant response rating, Pigweed               0
3  Nc1nc(-c2ccc(Cl)cc2)nc(C(=O)[O-])c1Cl.[Na+]  Plant response rating, Pigweed             100
4       COC(=O)c1nc(-c2ccc(Br)cc2)nc(N)c1Br  Plant response rating, Pigweed              15
5                Nc1nc(C2CC2)nc(C(=O)O)c1Cl  Plant response rating, Pigweed             100

----------
The entries below come with measured Plant response rating (scale of 0 to 100), Wheat values attached.
Test system: wheat (Triticum aestivum)
Protocol Text: Test C postemergence
Assay type: in vivo
Experimental Context: 31 g ai/ha
Endpoint Name: Plant response rating (scale of 0 to 100), Wheat

> print(dat)
                                   molecule  readout.number
1  COC(=O)c1nc(C2CC2)nc(N=CN(C)C)c1Br [Compound 19]              30
2  Nc1nc(-c2ccc(Br)cc2)nc(C(=O)O)c1Br [Compound 136]              40
3  COC(=O)c1nc(C2CC2)nc(N)c1Br [Compound 2]              20
4  Nc1nc(C2CC2)nc(C(=O)OCc2ccccc2)c1Cl [Compound 78]              20

----------
Tested on: morningglory (Ipomoea coccinea)
Protocol Text: Test B pre/postemergence
Type: in vivo
Experimental Context: Preemergence, 125 g ai/ha; scale 0 to 100 (0 no effect, 100 complete control)
I would appreciate it if you labelled entries Fulfilled when Plant response rating, Morningglory is 70 or higher, otherwise Not fulfilled.

> print(dat)
                                 smiles.text     class.name
 1     CCOC(=O)Cc1nc(-c2ccc(Cl)cc2)nc(N)c1Br  Not fulfilled
 2       CCOC(=O)c1nc(C2CC2)nc(NCCN(C)C)c1Br  Not fulfilled
 3     CCOC(=O)c1nc(C2CC2)nc(NOC(C)(C)C)c1Br      Fulfilled
 4       CCOC(=O)c1nc(C2CC2)nc(N=CN(C)C)c1Br      Fulfilled
 5              CN(C)N=Cc1nc(C2CC2)nc(N)c1Br      Fulfilled
 6          CCOC(=O)c1nc(C2CC2)nc(NCCOC)c1Br  Not fulfilled
 7       COC(=O)CNc1nc(C2CC2)nc(C(=O)OC)c1Br      Fulfilled
 8                  Nc1nc(C2CC2)nc(C=NO)c1Br      Fulfilled
 9           CC=NNc1nc(C2CC2)nc(C(=O)OC)c1Br  Not fulfilled
10  COC(=O)c1nc(-c2ccc(C(F)(F)F)cc2)nc(N)c1Cl  Not fulfilled
11        Nc1nc(-c2ccc(Cl)cc2)nc(C(=O)O)c1Br  Not fulfilled

----------
System: eastern black nightshade (Solanum ptycanthum)
Protocol Text: Test C pre/postemergence
Type: in vivo
Experimental Context: Preemergence, 125 g ai/ha; scale 0 to 100
The entries below come with measured Plant response rating, Nightshade values attached.
Endpoint Name: Plant response rating, Nightshade

> print(dat)
                            smiles.text  readout.number
1      CC(C)COC(=O)c1nc(C2CC2)nc(N)c1Br              95
2  CCOC(=O)Cc1nc(C2CC2)nc(N=CN(C)C)c1Br              50
3          CN(C)N=Cc1nc(C2CC2)nc(N)c1Br             100
4         CCOC(=O)Cc1nc(C2CC2)nc(N)c1Br              60

----------
Test system: lambsquarters (Chenopodium album)
Protocol Text: Test C pre/postemergence
Type: in vivo
Experimental Context: Chenopodium album, pre-emergence, Preemergence, 125 g ai/ha; scale 0 to 100; read-out: Plant response rating, Lambsquarters
The entries below come with measured pest or weed control at 125 g/ha values attached.
Endpoint Name: pest or weed control at 125 g/ha (%)

> print(dat)
                          smiles.text  units  readout.number
1         COC(=O)c1nc(C2CC2)nc(N)c1Br      %             100
2  Nc1nc(-c2ccc(Cl)cc2)nc(C(=O)O)c1Cl      %             100
3        CCOC(=O)c1nc(C2CC2)nc(N)c1Cl      %             100
4         COC(=O)c1nc(C(C)C)nc(N)c1Br      %               0
5          Nc1nc(C2CC2)nc(C(=O)O)c1Br      %              20

----------
Test system: corn (Zea mays)
Protocol Text: Test B pre/postemergence
Format: in vivo
Experimental Context: Zea mays, pre-emergence, Preemergence, 500 g ai/ha; scale 0 to 100 (0 no effect, 100 complete control); read-out: Corn plant response rating
Endpoint Name: plant injury at 500 g/ha (%)

> print(dat)
                        smiles.text             endpoint.name  readout.number
1        COC(=O)c1nc(C2CC2)nc(N)c1I  plant injury at 500 g/ha               0
2  CCOC(=O)c1nc(-c2ccccc2)nc(N)c1Br  plant injury at 500 g/ha               0
3        COC(=O)c1nc(C2CC2)nc(N)c1F  plant injury at 500 g/ha               0
4       COC(=O)c1nc(C2CC2)nc(N)c1Cl  plant injury at 500 g/ha              80

----------
System: Surinam grass (Brachiaria decumbens)
Protocol Text: Test C pre/postemergence
Format: in vivo
Experimental Context: Postemergence, 125 g ai/ha; scale 0 to 100 (0 no effect, 100 complete control)
The entries below come with measured Surinam Grass plant response rating values attached.
Endpoint Name: Surinam Grass plant response rating

> print(dat)
                                   molecule                        endpoint.name  readout.number
1  CCOC(=O)C(OC(C)=O)c1nc(C2CC2)nc(N)c1Br (stereo not drawn) [Compound 47]  Surinam Grass plant response rating              20
2  COC(=O)c1nc(C2CC2C)nc(N)c1Br (stereo not drawn) [Compound 28]  Surinam Grass plant response rating               0
3  CN(C)N=Cc1nc(C2CC2)nc(N)c1Br [Compound 50]  Surinam Grass plant response rating               0
4   CNN=Cc1nc(C2CC2)nc(N)c1Br [Compound 49]  Surinam Grass plant response rating               0
5  CCOC(=O)c1nc(-c2ccc(Cl)cc2)nc(N)c1Br [Compound 37]  Surinam Grass plant response rating               0
6  Nc1nc(-c2ccc(Cl)cc2)nc(C(=O)O)c1Br [Compound 88]  Surinam Grass plant response rating              80
